Experiment: 7-day multiple-dose MTD toxicologic study of Suprastin (C4), oral gavage, CD-1 mice
Format: in vivo
Details: both sexes, CD-1, mouse, in vivo; oral gavage in mice, daily for 7 days
Method: • A 7-day, multiple-dose maximum tolerated dose toxicologic study of the drug Suprastin (C4) was performed in CD-1 mice. • The drug Suprastin (C4) was the test article. […] • The test article Suprastin (C4) was prepared in sterile water and administered orally (PO) via orogastric gavage as a single daily dose on days 0-6 in the morning. […] Dosages were calculated on a “per mouse” basis, not on a mg/kg basis. […]
Metric Name: MTD at 7 days

// query MTD at 7 days value for entry CN(C)CCN(Cc1ccc(Cl)cc1)c1ccccn1 [C4]
≥ 150 mg/kg

* * *

Experiment: 7-day single-dose MTD toxicologic study of Y15, oral gavage, CD-1 mice
Type: in vivo
Details: both sexes, CD-1, mouse, in vivo, po
Metric Name: MTD at 7 days (mg/kg)
One number for each entry, in mg/kg.

Recorded MTD at 7 days of Cl.Cl.Cl.Cl.Nc1cc(N)c(N)cc1N [Y15] , please.
200

* * *

Test: 7-day multiple-dose MTD toxicologic study of Y15, oral gavage, CD-1 mice
Format: in vivo
Conditions: both sexes, CD-1, mouse, in vivo; oral gavage in mice, daily for 7 days; read-out: no observable adverse effects level (NOAEL)
Metric Name: NOAEL at 7 days

Which NOAEL at 7 days value belongs to `Cl.Cl.Cl.Cl.Nc1cc(N)c(N)cc1N` ?
100 mg/kg

* * *

Experiment: 7-day multiple-dose MTD toxicologic study of Y15, oral gavage, CD-1 mice
Format: in vivo
Conditions: both sexes, CD-1, mouse, in vivo; oral gavage in mice, daily for 7 days
Metric Name: MTD at 7 days

Entry `Cl.Cl.Cl.Cl.Nc1cc(N)c(N)cc1N` has what MTD at 7 days?
≥ 100 mg/kg
